Field: FAS gene expression, decrease (change rate). Provide a value for each of the compounds that follow.
System: obesity and metabolic diseases-related genes in visceral fat tissue
test: RT-PCR of obesity and metabolic diseases-related genes, visceral fat tissue
Type: in vivo, mouse
test_settings: odor component-supplemented group to the HFD control group

Ask | Give its FAS gene expression, decrease (change rate) value. Item: `OCc1c[nH]c2ccccc12`
Reply | 56% decrease

Ask | Requested read-out: FAS gene expression, decrease (change rate). Entry: CC(=O)O[C@]1(C)CC[C@@]23C[C@@H]1C(C)(C)[C@@H]2CC[C@H]3C [cedryl acetate]
Reply | 43% decrease

Ask | So what's the measured FAS gene expression, decrease (change rate) for this one? `O=C(/C=C/C=C/c1ccc2c(c1)OCO2)N1CCCCC1`
Reply | 52% decrease

Turning now to a further compound:
Ask | For the compound shown here, `C/C=C1/[C@H](O[C@@H]2O[C@H](CO)[C@@H](O)[C@H](O)[C@H]2O)OC=C(C(=O)OC)[C@H]1CC(=O)OCCc1ccc(O)c(O)c1` , give the reported FAS gene expression, decrease (change rate).
Reply | 65 decrease %

----------
For each entry below, report its aP2 gene expression, decrease (change rate) value.
Test system: obesity and metabolic diseases-related genes in visceral fat tissue
test: RT-PCR of obesity and metabolic diseases-related genes, visceral fat tissue
Format: in vivo, mouse
test_settings: odor component-supplemented group to the HFD control group
Numbers only, in % decrease.

Ask | Sample `C/C=C1/[C@H](O[C@@H]2O[C@H](CO)[C@@H](O)[C@H](O)[C@H]2O)OC=C(C(=O)OC)[C@H]1CC(=O)OCCc1ccc(O)c(O)c1` — what was its aP2 gene expression, decrease (change rate)?
Reply | 26

Give me aP2 gene expression, decrease (change rate) for each of these molecules, listed below.
1. O=C(/C=C/C=C/c1ccc2c(c1)OCO2)N1CCCCC1
2. CC(=O)O[C@]1(C)CC[C@@]23C[C@@H]1C(C)(C)[C@@H]2CC[C@H]3C [cedryl acetate]
3. OCc1c[nH]c2ccccc12

Reply |
[60, 33, 44]

----------
What CPT1 gene expression, increase (change rate) was measured for each of the following?
Tested on: obesity and metabolic diseases-related genes in visceral fat tissue
test: RT-PCR of obesity and metabolic diseases-related genes, visceral fat tissue
Assay type: in vivo, mouse
test_settings: odor component-supplemented group to the HFD control group

Ask | May I ask what CPT1 gene expression, increase (change rate) has been recorded for CC(=O)O[C@]1(C)CC[C@@]23C[C@@H]1C(C)(C)[C@@H]2CC[C@H]3C [cedryl acetate] ?
Reply | 47% increase^

For every item in the list below, what is its measured CPT1 gene expression, increase (change rate)?
1. C/C=C1/[C@H](O[C@@H]2O[C@H](CO)[C@@H](O)[C@H](O)[C@H]2O)OC=C(C(=O)OC)[C@H]1CC(=O)OCCc1ccc(O)c(O)c1
2. O=C(/C=C/C=C/c1ccc2c(c1)OCO2)N1CCCCC1
3. OCc1c[nH]c2ccccc12

Reply |
1: 50% increase^; 2: 75% increase^; 3: 25% increase^

----------
Test system: HSL (hormone sensitive lipase)
test: Western blotting, protein phosphorylation of HSL
Assay type: in vivo, mouse
test_settings: odor component-supplemented group to the HFD control group
parameter_measured: HSL phosphorylation, increase (change rate) (% increase)
Numbers only, in % increase.

Recorded HSL phosphorylation, increase (change rate), per entry:
Ask | So what does the record say about HSL phosphorylation, increase (change rate) for C/C=C1/[C@H](O[C@@H]2O[C@H](CO)[C@@H](O)[C@H](O)[C@H]2O)OC=C(C(=O)OC)[C@H]1CC(=O)OCCc1ccc(O)c(O)c1 [oleuropein] ?
Reply | 52

Ask | Requested field: HSL phosphorylation, increase (change rate). Item: O=C(/C=C/C=C/c1ccc2c(c1)OCO2)N1CCCCC1 [piperine]
Reply | 45

Further cases:
Ask | So what does the record say about HSL phosphorylation, increase (change rate) for CC(=O)O[C@]1(C)CC[C@@]23C[C@@H]1C(C)(C)[C@@H]2CC[C@H]3C [cedryl acetate] ?
Reply | 46

These measurements were taken from patent US10167507B2.
